Molecular target: ERα (Homo sapiens)
Construct: host or cells: MCF7
Sequence (P03372 1-595): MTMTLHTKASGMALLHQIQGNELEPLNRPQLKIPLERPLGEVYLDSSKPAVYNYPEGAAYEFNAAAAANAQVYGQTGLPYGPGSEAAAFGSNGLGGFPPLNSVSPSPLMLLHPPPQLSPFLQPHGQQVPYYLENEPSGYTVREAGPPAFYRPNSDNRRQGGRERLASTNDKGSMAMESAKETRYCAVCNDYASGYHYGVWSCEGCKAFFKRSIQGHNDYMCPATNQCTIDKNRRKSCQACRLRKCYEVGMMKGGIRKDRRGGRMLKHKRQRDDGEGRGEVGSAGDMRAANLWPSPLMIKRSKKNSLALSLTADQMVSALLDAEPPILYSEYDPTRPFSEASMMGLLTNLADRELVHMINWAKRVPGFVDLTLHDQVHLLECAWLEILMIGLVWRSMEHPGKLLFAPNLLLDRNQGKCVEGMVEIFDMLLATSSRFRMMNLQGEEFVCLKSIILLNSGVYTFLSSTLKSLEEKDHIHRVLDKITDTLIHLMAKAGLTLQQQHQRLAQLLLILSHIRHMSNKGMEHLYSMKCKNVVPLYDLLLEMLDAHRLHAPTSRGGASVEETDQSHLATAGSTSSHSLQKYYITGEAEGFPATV
Experiment: Estrogen receptor degradation activity: breast cancer cell ERα in cell western assay (MCF7 cells)
Assay type: cell-based
Conditions: 4 hours post compound addition, concentration which degrades 50% of the estrogen receptor, read-out: Degradation IC50
Method: Test: Estrogen Receptor Degradation Activity Said test involves measuring the in vitro degradation activity of the compounds of the Table 1a. The measurements of the degradation activities were made using a breast cancer cell ERα in cell western assay as described hereunder. […] Integrated intensities in the green fluorescence and red fluorescence were measured to determine the levels of ERα and DNA respectively. […]
OBSERVED PROPERTY: DC50 (pM)

[P] O=C(O)c1ccc2c(c1)CCCC(c1cccc(C(F)(F)F)c1Cl)=C2c1ccc(C=C2CN(CCC(F)F)C2)cc1
[Q] O=C(O)c1ccc2c(c1)CCCC(c1ccc(F)c3c1CCC3)=C2c1ccc(C=C2CN(CCC(F)F)C2)cc1
[R] O=C(O)c1ccc2c(c1)CCCC(c1c(F)cc(C(F)(F)F)cc1F)=C2c1ccc(C=C2CN(CCCF)C2)cc1
[S] O=C(O)c1ccc2c(c1)CCCC(c1cccc3c1CCC3(F)F)=C2c1ccc(C=C2CN(CCCF)C2)cc1
input: Ordering criterion: DC50; begin with the maximum. Answer by listing the labels in the requested order.
output: Q, P, S, R
(Q: 1900 pM, P: 1000 pM, S: 600 pM, R: 300 pM)

[A] Cc1cc(F)c(C2=C(c3ccc(C=C4CN(CCCF)C4)cc3)c3ccc(C(=O)O)cc3CCC2)c(F)c1
[B] Cl.O=C(O)c1ccc2c(c1)SCCC(c1ccc(Cl)cc1Cl)=C2c1ccc(C=C2CN(CCCF)C2)cc1 [Example 115, hydrochloride]
[C] Cl.O=C(O)c1ccc2c(c1)CCCC(c1cccc(C(F)(F)F)c1)=C2c1ccc(C=C2CN(CCCF)C2)cc1 [Example 182, hydrochloride]
[D] Cl.O=C(O)c1ccc2c(c1)CCCC(c1ccc(Cl)cc1Cl)=C2c1ccc(C=C2CN(CCCF)C2)c(F)c1 [Example 103, hydrochloride]
input: Rank entries according to their DC50, from the largest number down. Answer by listing the labels in the requested order.
output: B, C, A, D

[1] O=C(O)c1ccc2c(c1)CCCC(c1cccc(Cl)c1C(F)(F)F)=C2c1ccc(C=C2CN(CCCF)C2)cc1
[2] O=C(O)c1ccc2c(c1)CCCC(c1cc(F)cc3c1CCC3)=C2c1ccc(C=C2CN(CCCF)C2)cc1
input: Could you kindly indicate whether 1 or 2 has the higher DC50 value? // respond with label for picked entry
output: 2

----------
Target: ERα (Homo sapiens, UniProt P03372)
Construct: host or cells: MCF7
Test: Estrogen receptor degradation activity: breast cancer cell ERα in cell western assay (MCF7 cells)
Assay type: cell-based
Settings: 4 hours post compound addition, concentration which degrades 50% of the estrogen receptor, read-out: Degradation IC50
Experimental: Test: Estrogen Receptor Degradation Activity Said test involves measuring the in vitro degradation activity of the compounds of the Table 1a. The measurements of the degradation activities were made using a breast cancer cell ERα in cell western assay as described hereunder. […] Integrated intensities in the green fluorescence and red fluorescence were measured to determine the levels of ERα and DNA respectively. […]
OBSERVED PROPERTY: DC50 (nM)

// worked examples, DC50 included
Cc1c(C2=C(c3ccc(C=C4CN(CCC(F)F)C4)cc3)c3ccc(C(=O)O)cc3CCC2)ccc(Cl)c1F    0.6
Cc1ccc(C2=C(c3ccc(C=C4CN(CCCF)C4)cc3)c3ccc(C(=O)O)cc3CCC2)cc1C(F)(F)F    0.4
O=C(O)c1ccc2c(c1)CCCC(c1cc(F)cc(C(F)(F)F)c1)=C2c1ccc(C=C2CN(CCCF)C2)cc1    0.3

[a] O=C(O)c1ccc2c(c1)CCCC(c1ncc(F)cc1C(F)(F)F)=C2c1ccc(C=C2CN(CCCF)C2)cc1
[b] O=C(O)c1ccc2c(c1)CCCC(c1cccc3c1CCC3)=C2c1ccc(C=C2CN(CCCF)C2)cc1
input: Lower value of DC50 belongs to which: a or b ? // respond with label for picked entry
output: b
(b: 0.2 nM, a: 0.6 nM)

[1] O=C(O)c1ccc2c(c1)CCCC(c1cccc(F)c1C(F)(F)F)=C2c1ccc(C=C2CN(CCC(F)F)C2)cc1
[2] COc1cc(C2=C(c3ccc(C=C4CN(CCCF)C4)cc3)c3ccc(C(=O)O)cc3CCC2)cc(C(F)(F)F)c1
input: Lower value of DC50 belongs to which: 1 or 2 ? // respond with label for picked entry
output: 1
(1: 0.4 nM, 2: 1.7 nM)

----------
molecular target: ERα (Homo sapiens); construct: host or cells: MCF7; experiment: Estrogen receptor degradation activity: breast cancer cell ERα in cell western assay (MCF7 cells); assay type: cell-based; conditions: 4 hours post compound addition, concentration which degrades 50% of the estrogen receptor, read-out: Degradation IC50
Counter-ions that a name gives are not always drawn.
OBSERVED PROPERTY: DC50 (nM)

O=C(O)c1ccc2c(c1)OCCC(c1ccc(Cl)cc1Cl)=C2c1ccc(C=C2CN(CCCF)C2)cc1 [Example 114, hydrochloride]    0.4

[A] O=C(O)c1ccc2c(c1)CCCC([C@@H]1C[C@H]1C1CCC(F)(F)CC1)=C2c1ccc(C=C2CN(CCCF)C2)cc1 (racemic) [Example 187]
[B] O=C(O)c1ccc2c(c1)CCCC(c1c(F)cc(F)cc1F)=C2c1ccc(C=C2CN(CCCF)C2)cc1 [Example 33]
[C] CC1CCc2cc(C(=O)O)ccc2C(c2ccc(C=C3CN(CCCF)C3)cc2)=C1c1ccc(Cl)cc1Cl (racemic) [Example 166]
input: Rank entries according to their DC50, from the largest number down. Answer by listing the labels in the requested order.
output: A, C, B

----------
Molecular target: ERα (Homo sapiens)
Construct: host or cells: MCF7
Sequence (P03372 1-595): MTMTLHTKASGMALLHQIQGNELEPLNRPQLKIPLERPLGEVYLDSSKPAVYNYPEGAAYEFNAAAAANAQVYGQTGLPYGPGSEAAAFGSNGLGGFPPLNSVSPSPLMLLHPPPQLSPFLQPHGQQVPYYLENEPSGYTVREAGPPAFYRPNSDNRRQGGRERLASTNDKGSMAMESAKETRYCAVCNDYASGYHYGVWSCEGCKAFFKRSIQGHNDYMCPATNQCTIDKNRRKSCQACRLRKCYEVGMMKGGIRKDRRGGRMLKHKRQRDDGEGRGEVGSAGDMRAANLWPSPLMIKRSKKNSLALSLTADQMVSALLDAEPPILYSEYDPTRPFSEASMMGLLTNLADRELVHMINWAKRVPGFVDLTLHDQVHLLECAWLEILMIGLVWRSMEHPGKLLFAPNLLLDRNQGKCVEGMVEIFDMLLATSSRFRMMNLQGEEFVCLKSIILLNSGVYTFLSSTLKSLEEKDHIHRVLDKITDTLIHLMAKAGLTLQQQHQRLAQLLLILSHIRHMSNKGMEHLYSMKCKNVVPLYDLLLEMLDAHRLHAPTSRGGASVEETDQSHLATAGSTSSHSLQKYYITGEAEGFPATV
Assay: Estrogen receptor degradation activity: breast cancer cell ERα in cell western assay (MCF7 cells)
Type: cell-based
Details: 4 hours post compound addition, concentration which degrades 50% of the estrogen receptor, read-out: Degradation IC50
OBSERVED PROPERTY: DC50 (nM)

// worked examples, DC50 included
O=C(O)c1ccc2c(c1)CCCC(c1cccc(C(F)(F)F)c1F)=C2c1ccc(C=C2CN(CCC(F)F)C2)cc1    1
O=C(O)c1ccc2c(c1)CCCC(c1ccc(F)c(F)c1F)=C2c1ccc(C=C2CN(CCCF)C2)cc1    0.5
Cc1cc(F)ccc1C1=C(c2cc(F)c(C=C3CN(CCCF)C3)cc2F)c2ccc(C(=O)O)cc2CCC1.Cl [Example 65, hydrochloride]    0.3
Cc1ccc(C(F)(F)F)c(C2=C(c3ccc(C=C4CN(CCCF)C4)cc3)c3ccc(C(=O)O)cc3CCC2)c1    0.9
CC1CCc2cc(C(=O)O)ccc2C(c2ccc(C=C3CN(CCCF)C3)cc2)=C1c1ccc(Cl)cc1 (single isomer, unassigned) [Example 184]    0.4
O=C(O)c1ccc2c(c1)CCCC(c1ccc(C(F)(F)F)c(C(F)(F)F)c1)=C2c1ccc(C=C2CN(CCCF)C2)cc1    1.4
Cc1cc(F)ccc1C1=C(c2ccc(C=C3CN(CCCF)C3)cc2)c2ccc(C(=O)O)cc2CCC1    0.3
Cl.O=C(O)c1ccc2c(c1)CCC(c1ccc(Cl)cc1Cl)=C2c1ccc(C=C2CN(CCCF)C2)cc1 [Example 106, hydrochloride]    1

[A] O=C(O)c1ccc2c(c1)CCCC(c1ccc(F)cc1F)=C2c1c(F)cc(C=C2CN(CCCF)C2)cc1F
[B] O=C(O)c1ccc2c(c1)CCCC(c1cccc3c1CCCC3)=C2c1ccc(C=C2CN(CCCF)C2)cc1
input: Could you kindly indicate whether A or B has the higher DC50 value? // respond with label for picked entry
output: B
(B: 1 nM, A: 0.3 nM)

[A] Cc1cc(Cl)ccc1C1=C(c2ccc(C=C3CN(CCC(F)F)C3)cc2)c2ccc(C(=O)O)cc2CCC1
[B] Cl.O=C(O)c1ccc2c(c1)CCCC(c1ccccc1C(F)(F)F)=C2c1ccc(C=C2CN(CCCF)C2)cc1 [Example 183, hydrochloride]
[C] Cc1cc(C#N)ccc1C1=C(c2ccc(C=C3CN(CCCF)C3)cc2)c2ccc(C(=O)O)cc2CCC1
input: Rank entries according to their DC50, from the largest number down. Answer by listing the labels in the requested order.
output: C, A, B

[1] COc1nccc(C2=C(c3ccc(C=C4CN(CCCF)C4)cc3)c3ccc(C(=O)O)cc3CCC2)c1F
[2] Cc1c(C2=C(c3ccc(C=C4CN(CCC(F)(F)F)C4)cc3)c3ccc(C(=O)O)cc3CCC2)ccc(Cl)c1F
[3] Cc1cccc(C2=C(c3ccc(C=C4CN(CCCF)C4)cc3)c3ccc(C(=O)O)cc3CCC2)c1C
[4] Cl.O=C(O)c1ccc2c(c1)CCCC(c1ccc(Cl)cc1Cl)=C2c1cc(F)c(C=C2CN(CCCF)C2)c(F)c1
[5] Cl.O=C(O)c1ccc2c(c1)CCCC(c1ccc(Cl)cc1Cl)=C2c1ccc(C=C2CN(CCCF)C2)cc1F [Example 101, hydrochloride]
input: Endpoint returns the given molecules ordered by ascending DC50. Answer by listing the labels in the requested order.
output: 4, 3, 5, 1, 2
